MEASURED ON: Interstitial collagenase (Homo sapiens, UniProt P03956)
Sequence (P03956 whole entry): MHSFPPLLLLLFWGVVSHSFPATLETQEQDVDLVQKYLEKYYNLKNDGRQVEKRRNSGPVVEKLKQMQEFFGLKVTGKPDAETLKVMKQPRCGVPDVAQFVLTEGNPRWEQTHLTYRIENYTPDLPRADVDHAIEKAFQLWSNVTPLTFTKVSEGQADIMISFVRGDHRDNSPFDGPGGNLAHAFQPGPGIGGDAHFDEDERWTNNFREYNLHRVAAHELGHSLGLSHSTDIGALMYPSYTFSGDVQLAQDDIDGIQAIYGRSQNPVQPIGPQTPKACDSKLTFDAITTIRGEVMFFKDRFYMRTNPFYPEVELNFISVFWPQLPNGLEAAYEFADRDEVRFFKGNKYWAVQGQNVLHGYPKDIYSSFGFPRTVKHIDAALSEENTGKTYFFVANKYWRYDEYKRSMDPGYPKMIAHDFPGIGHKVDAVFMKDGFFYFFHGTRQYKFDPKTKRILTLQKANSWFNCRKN
OBSERVABLE: Ki
# answer = value followed by unit

Query string: Entry under review: `C[C@H](NS(=O)(=O)c1ccccc1)C(=O)NC1=NN=C(c2ccc([N+](=O)[O-])cc2)CS1` . Reported Ki?
Result string: 260 nM

Query string: For the molecule `C[C@@H](NS(=O)(=O)c1ccccc1)C(=O)NC1=NN=C(c2ccc(F)cc2)CS1` , what Ki is on record?
Result string: 630 nM

Query string: Given the entry `C[C@H](NS(=O)(=O)c1ccccc1)C(=O)NC1=NN=C(c2ccc(Cl)cc2)CS1` , report its measured Ki.
Result string: 650 nM

Query string: Requested field: Ki. Item: `C[C@@H](NS(=O)(=O)c1ccccc1)C(=O)NC1=NN=C(c2ccc(Cl)cc2)CS1`
Result string: 210 nM

Query string: What value of measured Ki is listed for `COc1ccc(C2=NN=C(NC(=O)[C@H](C)NS(=O)(=O)c3ccccc3)SC2)cc1` ?
Result string: 580 nM

Query string: So what's the measured Ki for this one? `C[C@@H](NS(=O)(=O)c1ccccc1)C(=O)NC1=NN=C(c2ccc(Br)cc2)CS1`
Result string: 420 nM

###

# log10 Ki measurements, system: Matrix metalloproteinase-9 (Homo sapiens, UniProt P14780)
# Sequence (P14780 whole entry): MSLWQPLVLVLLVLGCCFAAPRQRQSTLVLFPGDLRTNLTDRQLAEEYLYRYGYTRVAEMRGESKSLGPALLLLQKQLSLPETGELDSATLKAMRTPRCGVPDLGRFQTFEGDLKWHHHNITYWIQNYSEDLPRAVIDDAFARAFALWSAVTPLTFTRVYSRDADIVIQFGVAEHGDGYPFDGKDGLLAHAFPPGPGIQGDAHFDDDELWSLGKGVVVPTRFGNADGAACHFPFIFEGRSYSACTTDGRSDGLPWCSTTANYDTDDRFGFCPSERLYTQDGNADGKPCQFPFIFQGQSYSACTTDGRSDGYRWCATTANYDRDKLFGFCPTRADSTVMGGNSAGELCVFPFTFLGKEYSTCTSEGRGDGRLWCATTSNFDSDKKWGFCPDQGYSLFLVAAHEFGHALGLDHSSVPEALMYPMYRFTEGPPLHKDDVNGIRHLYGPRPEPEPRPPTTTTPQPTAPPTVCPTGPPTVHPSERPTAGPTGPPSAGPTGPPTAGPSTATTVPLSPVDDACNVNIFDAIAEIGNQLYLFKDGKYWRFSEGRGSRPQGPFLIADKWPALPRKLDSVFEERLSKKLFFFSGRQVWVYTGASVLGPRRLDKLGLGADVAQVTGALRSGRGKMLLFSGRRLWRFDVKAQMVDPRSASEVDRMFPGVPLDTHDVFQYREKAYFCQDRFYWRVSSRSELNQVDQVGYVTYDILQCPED
Form field - Quantity: Ki; Unit: nM; Scale: log10

Query string: Look at this compound and give its reported log10 Ki. `CC(C)[C@H](NS(=O)(=O)c1ccccc1)C(=O)NC1=NN=C(c2ccc(Cl)cc2)CS1`
Result string: 2.30

Query string: Which log10 Ki is reported for this compound? `C[C@@H](NS(=O)(=O)c1ccccc1)C(=O)NC1=NN=C(c2ccc(Br)cc2)CS1`
Result string: 1.60

Query string: Any idea what its log10 Ki is? The compound is `COc1ccc(C2=NN=C(NC(=O)[C@H](C)NS(=O)(=O)c3ccccc3)SC2)cc1`
Result string: 2.51

Query string: Quick one: log10 Ki for `C[C@H](NS(=O)(=O)c1ccccc1)C(=O)NC1=NN=C(c2ccc(Br)cc2)CS1` ?
Result string: 2.20

Query string: For the compound `C[C@H](NS(=O)(=O)c1ccccc1)C(=O)NC1=NN=C(c2ccc(C(F)(F)F)cc2)CS1` , what log10 Ki is on record?
Result string: 2.38

Query string: Bench note: what log10 Ki did `Cc1ccc(C2=NN=C(NC(=O)[C@@H](C)NS(=O)(=O)c3ccccc3)SC2)cc1` show?
Result string: 2.32

Query string: Report log10 Ki for `C[C@H](NS(=O)(=O)Cc1ccccc1)C(=O)NC1=NN=C(c2ccc(Cl)cc2)CS1` please.
Result string: 1.60

Query string: So what's the measured log10 Ki for this one? `C[C@@H](NS(=O)(=O)c1ccccc1)C(=O)NC1=NN=C(c2ccc(C#N)cc2)CS1`
Result string: 1.90

Query string: Look up log10 Ki: `C[C@H](NS(=O)(=O)c1ccccc1)C(=O)NC1=NN=C(c2ccc(Cl)cc2)CS1`
Result string: 1.78

Query string: Reported log10 Ki, compound `C[C@H](NS(=O)(=O)c1ccccc1)C(=O)NC1=NN=C(c2ccc(C#N)cc2)CS1` : ____
Result string: 1.90

Query string: What does the data say about its log10 Ki? Entry: `C[C@H](NS(=O)(=O)c1ccccc1)C(=O)NC1=NN=C(c2ccc([N+](=O)[O-])cc2)CS1`
Result string: 2.11

Query string: log10 Ki lookup needed for `C[C@H](NS(=O)(=O)c1cccs1)C(=O)NC1=NN=C(c2ccc(Cl)cc2)CS1` , thanks.
Result string: 2.90

Query string: # get_value(readout='log10 Ki', item= `Cc1ccc(C2=NN=C(NC(=O)[C@H](C)NS(=O)(=O)c3ccccc3)SC2)cc1` )
Result string: 2.20

Query string: // query log10 Ki value for entry `C[C@H](NS(=O)(=O)c1ccccc1)C(=O)NC1=NN=C(c2ccc(F)cc2)CS1`
Result string: 2.20

Query string: I'd like to know its log10 Ki. The compound in question is `C[C@@H](NS(=O)(=O)c1ccccc1)C(=O)NC1=NN=C(c2ccc(Cl)cc2)CS1`
Result string: 1.90

Query string: Recorded log10 Ki of `C[C@@H](NS(=O)(=O)c1ccccc1)C(=O)NC1=NN=C(c2ccc(F)cc2)CS1` , please.
Result string: 1.70
